target: OR28/OR7 (Anopheles gambiae, UniProt A0A1S4GFY3+Q7QCC7); experiment: Ca2+-imaging of stable HEK293T cell line OR28/OR7; type: cell-based; conditions: HEK-293T; compound applied at 4 μM; read-out: Percent Inhibition OR28 OR7
Sequence (A0A1S4GFY3 entry or part of it): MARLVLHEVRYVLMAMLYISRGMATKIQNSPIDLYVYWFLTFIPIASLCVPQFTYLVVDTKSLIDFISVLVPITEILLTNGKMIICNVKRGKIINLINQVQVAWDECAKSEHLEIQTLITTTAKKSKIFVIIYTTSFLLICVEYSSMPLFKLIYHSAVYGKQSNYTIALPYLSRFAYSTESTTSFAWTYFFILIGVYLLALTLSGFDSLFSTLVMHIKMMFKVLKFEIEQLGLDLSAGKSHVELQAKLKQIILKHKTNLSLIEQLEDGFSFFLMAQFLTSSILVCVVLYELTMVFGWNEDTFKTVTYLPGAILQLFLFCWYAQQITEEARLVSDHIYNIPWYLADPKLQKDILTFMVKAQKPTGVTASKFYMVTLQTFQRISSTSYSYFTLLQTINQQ
Sequence (Q7QCC7 whole entry): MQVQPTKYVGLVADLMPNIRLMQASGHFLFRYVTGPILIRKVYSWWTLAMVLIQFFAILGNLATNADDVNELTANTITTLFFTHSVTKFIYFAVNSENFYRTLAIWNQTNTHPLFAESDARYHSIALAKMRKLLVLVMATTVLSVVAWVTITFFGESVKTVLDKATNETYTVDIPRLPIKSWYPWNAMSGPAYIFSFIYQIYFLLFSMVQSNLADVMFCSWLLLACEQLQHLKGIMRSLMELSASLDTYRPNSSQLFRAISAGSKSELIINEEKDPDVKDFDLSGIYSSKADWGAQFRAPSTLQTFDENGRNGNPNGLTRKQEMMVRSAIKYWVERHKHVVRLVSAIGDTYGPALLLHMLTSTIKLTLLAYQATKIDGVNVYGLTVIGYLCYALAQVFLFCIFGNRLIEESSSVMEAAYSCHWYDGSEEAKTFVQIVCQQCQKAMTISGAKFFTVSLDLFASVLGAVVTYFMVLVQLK
For each entry below, report its inhibition at 4 µM value.

QUERY: Jot down inhibition at 4 µM (OR28/OR7 (Anopheles gambiae, UniProt A0A1S4GFY3+Q7QCC7)) of `O=C(C1CCC1)N(Cc1ccco1)Cc1nccn1Cc1ccccc1Cl` .
RESULT: > 75%

QUERY: System OR28/OR7 (Anopheles gambiae, UniProt A0A1S4GFY3+Q7QCC7). Read-out inhibition at 4 µM. Item C=C[C@@](C)(O)CCC1C(=C)CCC2[C@@](C)(CO)CCC[C@]12C (stereo partly shown) . Report value.
RESULT: > 75%

QUERY: With OR28/OR7 (Anopheles gambiae, UniProt A0A1S4GFY3+Q7QCC7) as the test system, provide measured inhibition at 4 µM for this compound: `Cc1ccc(CN(CCc2ccccc2)C(=O)CN(C(=O)NC(C)(C)C)C(C)C)o1`
RESULT: > 75%

QUERY: GET inhibition at 4 µM | system: OR28/OR7 (Anopheles gambiae, UniProt A0A1S4GFY3+Q7QCC7) | item: COCCCN(CC(=O)N1CCc2sccc2C1COc1cccc(OC)c1)C(=O)c1ccccc1OC (stereo not shown)
RESULT: > 75%

* * *

Biological target: Or47a/Or83b (Drosophila melanogaster, UniProt P81921+Q9VNB5)
Construct: Full-length cDNAs for mosquito (Anopheles gambiae) odorant receptor (OR1, OR2, OR7, OR8, OR28), and fly (Drosophila melanogaster) odorant receptor (Or47a, Or83b); expressed in transfected cells
Sequence (P81921 1-385): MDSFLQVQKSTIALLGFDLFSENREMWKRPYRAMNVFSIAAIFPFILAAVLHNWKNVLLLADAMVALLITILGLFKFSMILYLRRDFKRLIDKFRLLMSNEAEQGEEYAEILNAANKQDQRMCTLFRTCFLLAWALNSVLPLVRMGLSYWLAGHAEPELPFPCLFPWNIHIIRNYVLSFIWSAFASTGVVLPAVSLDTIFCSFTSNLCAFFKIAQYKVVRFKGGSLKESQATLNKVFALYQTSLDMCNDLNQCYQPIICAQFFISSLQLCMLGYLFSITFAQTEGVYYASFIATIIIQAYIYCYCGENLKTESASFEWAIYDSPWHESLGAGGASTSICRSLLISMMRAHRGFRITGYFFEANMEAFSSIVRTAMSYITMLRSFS
Sequence (Q9VNB5 1-486): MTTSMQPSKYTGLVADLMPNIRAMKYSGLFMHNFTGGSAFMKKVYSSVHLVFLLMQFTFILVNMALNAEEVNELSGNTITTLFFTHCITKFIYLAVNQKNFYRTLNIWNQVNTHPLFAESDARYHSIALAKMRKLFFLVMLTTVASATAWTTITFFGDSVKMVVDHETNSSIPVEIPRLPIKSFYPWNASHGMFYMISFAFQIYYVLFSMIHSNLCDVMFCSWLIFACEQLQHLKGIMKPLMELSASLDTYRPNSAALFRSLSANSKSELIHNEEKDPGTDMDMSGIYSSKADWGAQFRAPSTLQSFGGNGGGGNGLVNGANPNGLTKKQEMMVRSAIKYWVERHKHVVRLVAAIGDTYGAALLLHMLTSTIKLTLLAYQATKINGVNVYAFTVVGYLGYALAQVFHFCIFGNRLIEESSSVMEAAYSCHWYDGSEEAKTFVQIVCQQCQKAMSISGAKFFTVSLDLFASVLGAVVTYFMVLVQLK
Assay: Ca2+-imaging of stable Flip-In T-Rex cell line Or47a/Or83b
Type: cell-based
Settings: read-out: Percent Inhibition OR47a OR83b
QUANTITY NAME: inhibition at 4 µM

QUERY: Give the value of inhibition at 4 µM reported for the following: `CCN(CC)C(=O)Oc1ccc2c(ccn2Cc2ccc(Cl)cc2)c1NC(=O)C1CC1`
RESULT: < 25%

QUERY: Look up and state reported inhibition at 4 µM for `Cc1cc(C)c2c(c1C(=O)N1CCC3(CC1)C(=O)NCN3c1ccccc1)CC(C)(C)C2=O`
RESULT: > 75%

QUERY: Consider the compound `CCN(CC)C(=O)Oc1ccc2c(ccn2Cc2ccccc2Cl)c1NC(=O)CCCCC(=O)OC` and give its recorded inhibition at 4 µM.
RESULT: < 25%

QUERY: Give the measured inhibition at 4 µM for `CCN(CC)C(=O)Oc1ccc2c(ccn2Cc2cccc(C)c2)c1NC(=O)CCCCC(=O)OC`
RESULT: < 25%
